Tested on: PK1 neuroblastoma cells treated with TPrP
assay overview: cells
Format: cell-based
measurement setup: Neuroblastoma cell, read-out: Viability EC50
Parameter EC50: see the listing below.
The reply must contain the numeric value and, after it, the unit.

1) COc1ccc(-c2cc(=O)c3c(O)cc(OC)c(OC)c3o2)c(OC)c1	1600 nM
2) COc1ccc2c(c1)[nH]c1c(C)nccc12	1800 nM

Data request, read-out EC50, for `COc1ccc(-c2csc(Nc3ccc(S(N)(=O)=O)cc3)n2)cc1`
87 nM

====

Parameter pEC50: see the listing below.
Test system: PK1 neuroblastoma cells treated with TPrP
assay overview: cells
Format: cell-based
measurement setup: Neuroblastoma cell, read-out: Viability EC50
Schema: pEC50 number; meaning minus log10 of the concentration expressed in molar units.

Example results:
1) Cc1ccc(-c2nnc3c4ccccc4c(C)nn23)cc1S(=O)(=O)N1CCOCC1	7.52
2) COc1cc2c(cc1OC)-c1cc3ccc(OC)c(OC)c3c[n+]1CC2 [SR1-841226, palmatine chloride]	5.96
3) COc1ccc(-c2cc(=O)c3c(OC)c(OC)c(OC)c(OC)c3o2)cc1	5.72
4) Cc1ccc(-c2nnc3c4ccccc4c(C)nn23)cc1S(=O)(=O)NCCO	6.81

Data request, read-out pEC50, for `CN1C[C@H](CO)C=C2c3cccc4[nH]cc(c34)C[C@H]21`
5.72

Data request, read-out pEC50, for `COc1ccc2c(c1O)-c1c(OC)c(O)cc3c1[C@H](C2)N(C)CC3`
5.36

Data request, read-out pEC50, for `O=c1cc(-c2ccc(O)cc2)oc2cc(O[C@@H]3O[C@H](CO)[C@H](O)[C@H](O)[C@H]3O)cc(O)c12`
5.34
